Reference for the values: ChEMBL document CHEMBL2093137

In this section, each of the compounds is paired with its reported IC50.
tested on: Trypanosoma brucei brucei; assay: WHO-TDR: Human African Trypanosomiasis (HAT); format: functional, organism-based; conditions: Squib-427

Before answering, review these 2 worked examples.
O=C(NCCNc1ccc(Nc2ccncc2)nn1)Nc1ccc(Cl)cc1 | > 11.5 µg/mL
NC(=O)c1cc(-c2ccccc2)sc1NC(=O)C1COc2ccccc2O1 (stereo not given) | 3.65 µg/mL

Provide the documented IC50 with Trypanosoma brucei brucei as the system for `Cc1ccc2sc(N(CCN(C)C)C(=O)C3CCN(S(=O)(=O)c4cccs4)CC3)nc2c1C`
5.21 µg/mL

Then COc1ccc(CCNC(=O)NCC2CC(=O)N(c3ccc(Cl)cc3)C2)cc1 (stereo not given) ?
> 12.1 µg/mL

Then `COc1ccc(-c2ccc(=O)n(CCCNC(=O)Cc3ccc(F)cc3)n2)cc1` ?
> 11.9 µg/mL

Then `O=C(Cc1csc(Nc2cccc(Cl)c2)n1)NCc1ccccn1` ?
> 10.8 µg/mL

Then `COc1cc(C(=O)Nc2ccc3c(c2)N(C(=O)c2ccco2)CC3)cc(OC)c1OC` ?
> 12.7 µg/mL

Then CCC(Sc1ccc(NC(=O)c2cccc(F)c2)nn1)C(=O)OC (stereo not given) ?
> 10.5 µg/mL

Then `CN(C)CCN(C(=O)CCCS(=O)(=O)c1ccccc1)c1nc2ccc(F)cc2s1` ?
> 14.6 µg/mL

Then `CSc1ccccc1-c1nnc(NC(=O)c2ccc(Cl)s2)o1` ?
0.856 µg/mL

* * *

assay: WHO-TDR: Cytotoxicity; assay type: toxicity, cell-based; settings: human, MRC5 cells
PROPERTY_LABEL: IC50

Before answering, review these 6 worked examples.
CCN(CC)CCN(C(=O)Cc1ccc2c(c1)OCO2)c1nc2c(C)cc(C)cc2s1 | 11.2 µg/mL
O=C(Cc1csc(NC(=O)c2ccc[nH]c2=O)n1)Nc1ccc2c(c1)OCCO2 | > 12.4 µg/mL
Cc1c(Cl)ccc2sc(NC(=O)c3ccc(N(C)C)cc3)nc12 | > 10.4 µg/mL
COc1cccc(-c2cc(CC(=O)NCc3c(F)cccc3F)no2)c1 | > 10.8 µg/mL
CCCCc1ccc(NC(=O)CSc2cn(CC)c3ccccc23)cc1 | > 11 µg/mL
COc1ccccc1N1CCN(C(CNS(=O)(=O)c2cccs2)c2cccnc2)CC1 (configuration not stated) | > 13.8 µg/mL

Entry `CCCc1cc(=O)[nH]c(-n2nc(C)cc2NC(=O)c2ccc(Br)o2)n1` has what IC50?
0.441 µg/mL

Then `COc1ccccc1NC(=O)Nc1nc(CC(=O)N2CCN(c3cccc(C(F)(F)F)c3)CC2)cs1` ?
> 15.6 µg/mL

Then `O=C(Nc1nnc(CCSc2ccccc2)o1)c1ccc(Cl)cc1` ?
3.41 µg/mL

* * *

tested on: Leishmania infantum; test: WHO-TDR: Leishmaniasis; assay type: functional, organism-based, Mus musculus; conditions: Macrophage
In this section, each of the compounds is paired with its reported IC50.

Before answering, review these 5 worked examples.
Cc1ccc(S(=O)(=O)N2CCCCC2CC(=O)Nc2ccc(F)c(C(F)(F)F)c2)cc1 (configuration not stated) | > 13.8 µg/mL
Cc1cc(=O)[nH]c(-n2nc(C)c(CCC(=O)Nc3ccc(F)c(C(F)(F)F)c3)c2C)n1 | > 13.1 µg/mL
Cc1ccc2sc(N(Cc3cccnc3)C(=O)CSc3ccccc3)nc2c1C | > 12.6 µg/mL
CN1CCc2cc(C(CNC(=O)COc3ccc(Cl)cc3Cl)N3CCCC3)ccc21 (configuration not stated) | 3.38 µg/mL
NC(=O)Cc1csc(SCC(=O)c2ccccc2)n1 | 0.284 µg/mL

Entry `C=CCN1C(=O)C(C)(C)COc2ccc(NS(=O)(=O)c3ccc4c(c3)OCCO4)cc21` has what IC50?
> 13.3 µg/mL
